# target_desc: T1, MMP-26 (human)
# T1 sequence: ASDF
# test_summary: cell-based or functional assay
quantity_name: % Inhibition of JEG-3 cell invasion, 25 µg/ml (further test) (%)
Reply with just the number (in %).

| binder | quantitative_result |
| --- | --- |
| A01 (antibody, human IgG4, V domains shown) VH: EVQLLESGGGLVQPGGSLRLSCAASGFTFSAYNMFWVRQAPGKGLEWVSGIGSSGGIAPYADSVKGRFTISRDNSKNTLYLQMNSLRAEDTAVYYCARAAYEVENWFDPWGQGTLVTVSS VL: DIQMTQSPGTLSLSPGERATLSCRASQIVRSTYLAWYQQKPGQAPRLLIYGTSSRATGVPDRFSGSGSGTDFTLTISGLEPEDFALYYCQRYGDSPPITFGQGTRLEITR | 54 |
| D04 (antibody, human IgG4, V domains shown) VH: EVQLLESGGGLVQPGGSLRLSCAASGFTFSDYQMMWVRQAPGKGLEWVSRISPSGGMTRYADSVKGRFTISRDNSKNTLYLPMNSLRAEDTAVYYCARSGPYYFDYWGQGTLVTVSS VL: DIQMTQSPSSLSASVGDRVAITCRASQSIDTYLNWYQQKPGKAPKLLIYAASKLEDGVPSRFSGSGTGTDFTLTIRSLQPEDFASYFCQQSYSSPGITFGPGTKVEIKR | 45 |
| A1-orig (antibody, human IgG4, V domains shown) VH: EVQLLESGGGLVQPGGSLRLSCAASGFTFSYYRMSWVRQAPGKGLEWVSSIGPSGGDTLYADSVKGRFTISRDNSKNTLYLQMNSLRAEDTAVYYCARSFSSGPYYFDYWGQGTLVTVSS VL: QSVLTQPPSASGTPGQRVIISCSGSSSNIGSHYVHWYQQVPGTAPKLLIYRNGQRPSGVPDRFSGFKSGTSASLAISGLRSEDEANYYCATWDDSVLFGGGTTLTVLG | 64 |
| C12 (antibody, V domains shown) VH: EVQLLESGGGLVQPGGSLRLSCAASGFTFSAYNMMWVRQAPGKGLEWVSRIYPSGGYTLYADSVKGRFTISRDNSKNTLYLQMNSLRAEDTAVYYCARQKLMIRAVRPFDYWGQGTLVTVSS VL: QSELTQPPSVSVSPAQTASITCSGDKLGDKYACWYQQKPGQSPVLVIYEDTKRPSGIPERFSGSNSGNTATLTISGTQVMDEADYYCQVWDSSTAVFGGGTKLTVLG | 49 |
| C01 (antibody, human IgG4, V domains shown) VH: EVQLLESGGGLVQPGGSLRLSCAASGFTFSNYGMSWVRQAPGKGLEWVSVIGPSGGITMYADSVKGRFTISRDNSKNTLYLQMNSLRAEDTAVYYCATGSSSGWYPNFDYWGQGTLVTVSS VL: DIQMTQSPSTLSASVGDRVTITCRASQSIGNWLAWYQQKPGEAPHLLIYQASSLEGGVPSRFSGSGSGTKFTLNISSLQPDDFATYYCQQYNSYSYTFGQGTKLDIKR | 21 |
| C04 (antibody, human IgG4, V domains shown) VH: EVQLLESGGGLVQPGGSLRLSCAASGFTFSMYFMVWVRQAPGKGLEWVSWIGSSGGETPYADSVKGRFTISRDNSKNTLYLQMNSLRAEDTAVYYCARGYSSGWYVMGDYWGQGTLVTVSS VL: QSALTQPPSASGTPGQRVTISCSGTSSNIGSHYVFWYQQLPGTAPKLLIHRNDERPSGVPDRFSGSKSGTSASLAISGLQSEDEADYYCATWDDNLNGPVFGGGTKLT | 18 |

Exam item: Given the entry A11 (antibody, human IgG4, V domains shown) VH: EVQLLESGGGLVQPGGSLRLSCAASGFTFSWYTMMWVRQAPGKGLEWVSRISPSGGHTLYADSVKGRFTISRDNSZNTLYLQMNSLRAEDTAVYYCARDTWDDYYDSSGYYNDFDYWGQGTLVTVSS VL: QSALTQPPSVSLAPGQTARITCGGNNIGTKSVHWYQQKPGQAPVLVVYDDSDRPSGIPERFSGSNSGNTATLTISRVEAGDEADYYCQVWDSGSDHQVFGGGTKLTVLG , report its measured % Inhibition of JEG-3 cell invasion, 25 µg/ml (further test).
Marked response: 59

Exam item: # query: % Inhibition of JEG-3 cell invasion, 25 µg/ml (further test) of entry C08 (antibody, human IgG4, V domains shown) VH: EVQLLESGGGLVQPGGSLRLSCAASGFTFSYYEMMWVRQAPGKGLEWVSSISPSGGPTMYADSVKGRFTISRDNSKNTLYLQMNSLRAEDTGVYYCARKMGRVGYCSSTSCYRDDYYGMDVWGQGTTVTVSS VL: DIQMTQSPPSLSALVGDRVTITCRASQSISRYVNWYQQKPGKAPKVLIYAASIVENGVPSRFSGSGSGTDFSLTISSLQPEDFATYYCQQTYSTPLTFGGGTKLAIKR
Marked response: 49

Exam item: I am curious: what % Inhibition of JEG-3 cell invasion, 25 µg/ml (further test) value has been reported for D6-orig (antibody, human IgG4, V domains shown) VH: EVQLLESGGGLVQPGGSLRLSCAASGFTFSMYSMRWVRQAPGKGLEWVSSIYPSGGSTEYADSVKGRFTISRDNSKNTLYLQMNSLRAEDTAVYYCAREGGENDYWGQGTLVTVSS VL: DIQMTQSPLSLSASVGDRVAITCRASQSIDTYLNWYQQKPGKAPKLLIYAASKLEDGVPSRFSGSGTGTDFTLTIRSLQPEDFASYFCQQSYSSPGITFGPGTKVEIKR ?
Marked response: 70

Exam item: Fill in the blank: the reported % Inhibition of JEG-3 cell invasion, 25 µg/ml (further test) of D08 (antibody, human IgG4, V domains shown) VH: EVQLLESGGGLVQPGGSLRLSCAASGFTFSFYAMWWVRQAPGKGLEWVSRIYSSGGKTWYADSVKGRFTISRDNSKNTLYLQMNSLRAEDTAVYYCARVGMSTYAFDIWGQGTMVTVSS VL: DIQMTQSPSSLSASVGDRVTITCRASQSISDYLNWYQQKPGKAPDLLIYAASSLQSGVPSRFSGSGSGTDFTLTVSSLQPEDFATYFCQQSYSIPLTFGGGTKVEITR is ____.
Marked response: 76

Exam item: # % Inhibition of JEG-3 cell invasion, 25 µg/ml (further test) lookup, item B10 (antibody, human IgG4, V domains shown) VH: EVQLLESGGGLVQPGGSLRLSCAASGFTFSSYAMMWVRQAPGKGLEWVSWIVPSGGTTFYADSVKGRFTISRDNSKNTLYLQMNSLRAEDTAVYYCARGLYRWGQGTLVTVSSASTKGPSVFP VL: DIQMTQSPSSLSASVGDRVTIACRTSQNVNRYLNWYQHKLGQAPKLLIYGATILQSGVPSRFRGSGSGTDFILTITNLQPEDFAVYYCQQTYSPPLTFGQGTKAEFKGTVAAPSV
Marked response: 11
